- TARGET SYSTEM: Rhesus/Macaque TNF (Rhesus/Macaque, UniProt P48094 77-233)
- Sequence (P48094 77-233 limits assumed): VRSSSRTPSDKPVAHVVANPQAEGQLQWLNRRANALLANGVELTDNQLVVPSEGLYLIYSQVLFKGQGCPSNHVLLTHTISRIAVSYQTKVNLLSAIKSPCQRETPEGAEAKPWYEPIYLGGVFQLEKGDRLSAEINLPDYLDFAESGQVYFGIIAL
- METHOD NOTES: cell-based or functional assay
MEASURED ATTRIBUTE: rhesus TNF neutralization IC50 (nM)
The answer is to be given in nM; state only the numeric part.

Req: What value of rhesus TNF neutralization IC50 has been recorded for this entry: AE11-5 AM8 (antibody, V domains shown, Full length IgG converted from scFv clone J703M1S3#38; Human IgG1 (hCg1,z,non-a,mut(234,235)) with human kappa; also called J703M1S3#38) VH: EVQLVQSGAEVKKPGSSVKVSCKASGGTFSWYAISWVRQAPGQGLEWMGGITPILGTPIYAQKFQGRVTITADESTSTVYMELSSLRSEDTAVYYCARGVYYDFKRADYWGQGTLVTVSS VL: EIVLTQSPDFQSVTPKEKVTITCRASQTIGSSLHWYQQKPDQSPKLLIKHASQSISGVPSRFSGSGSGTDFTLTINSLEAEDAATYYCHQSSSSPPPTFGQGTKVEIK
Resp: 3.04
